All values here come from paper PMC7215599.

Would you kindly list pIC50 for each of these compounds?
System: MCF-7 (breast cancer) cell line
Test: MTT cell viability assay, MCF-7
Type: cell-based, human
Conditions: Homo sapiens, MCF7, 72 h, MTT, 72 h, 1-100 µM, mean ± SD
Procedure: Compounds 6–49 were evaluated in vitro for their effects on the viability of the three human cancer cell lines: HCT-116 (colon cancer), MCF-7 (breast cancer) and HeLa (cervical cancer) as well as the non-cancerous keratinocyte cell line (HaCaT). […] Cell viability was examined using the MTT (3-(4,5-dimethylthiazol-2-yl)-2,5-diphenyltetrazolium bromide) assay. […] Values are expressed as the mean ± SD of at least three independent experiments. […]
On this scale, pIC50 is minus log10 of a concentration expressed in M (mol/L).

Exercise: Query (compound): "Cc1cc(S(=O)(=O)N=c2[nH]c3ccccc3[nH]2)c(SCc2nc(N)nc(N3CCN(c4ccc(F)cc4)CC3)n2)cc1Cl" ; field requested: pIC50
Solution: 4.77

Exercise: Query (compound): "Cc1cc(S(=O)(=O)N=c2[nH]c3ccccc3[nH]2)c(SCc2nc(N)nc(Nc3ccc(F)cc3)n2)cc1Cl" ; field requested: pIC50
Solution: 4.46

Exercise: Query (compound): "Cc1cc(S(=O)(=O)N=c2[nH]c3ccc(Cl)cc3[nH]2)c(SCc2nc(N)nc(Nc3ccccc3)n2)cc1Cl" ; field requested: pIC50
Solution: 4.64

Exercise: Query (compound): "COc1ccccc1N1CCN(c2nc(N)nc(CSc3cc(Cl)c(C)cc3S(=O)(=O)N=c3[nH]c4ccc(Cl)cc4[nH]3)n2)CC1" ; field requested: pIC50
Solution: 4.46

Exercise: Query (compound): "Cc1cc(S(=O)(=O)N=c2[nH]c3ccccc3[nH]2)c(SCc2nc(N)nc(N3CCN(c4ccccc4)CC3)n2)cc1Cl" ; field requested: pIC50
Solution: 4.72

Exercise: Query (compound): "Cc1cc(S(=O)(=O)N=c2[nH]c3ccc(F)cc3[nH]2)c(SCc2nc(N)nc(N3CCN(c4ccc(Cl)c(Cl)c4)CC3)n2)cc1Cl" ; field requested: pIC50
Solution: 4.37

Exercise: Query (compound): "CC1=NN(c2nc(N)nc(CSc3cc(Cl)c(C)cc3S(=O)(=O)N=c3[nH]c4ccccc4[nH]3)n2)C(C)(C)C1" ; field requested: pIC50
Solution: 4.47

Exercise: Query (compound): "Cc1cc(S(=O)(=O)N=c2[nH]c3ccccc3[nH]2)c(SCc2nc(N)nc(N3CCc4ccccc43)n2)cc1Cl" ; field requested: pIC50
Solution: 4.70

Exercise: Query (compound): "Cc1cc(S(=O)(=O)N=c2[nH]c3ccccc3[nH]2)c(SCc2nc(N)nc(Nc3ccccc3)n2)cc1Cl" ; field requested: pIC50
Solution: 4.39
